# run.description: self-splicing fitness, log relative to wild type (ln ratio); higher = more splicing; Tetrahymena group I intron in knt gene, E. coli kanamycin selection, DiMSum; sequences stand for … in CUCUCU…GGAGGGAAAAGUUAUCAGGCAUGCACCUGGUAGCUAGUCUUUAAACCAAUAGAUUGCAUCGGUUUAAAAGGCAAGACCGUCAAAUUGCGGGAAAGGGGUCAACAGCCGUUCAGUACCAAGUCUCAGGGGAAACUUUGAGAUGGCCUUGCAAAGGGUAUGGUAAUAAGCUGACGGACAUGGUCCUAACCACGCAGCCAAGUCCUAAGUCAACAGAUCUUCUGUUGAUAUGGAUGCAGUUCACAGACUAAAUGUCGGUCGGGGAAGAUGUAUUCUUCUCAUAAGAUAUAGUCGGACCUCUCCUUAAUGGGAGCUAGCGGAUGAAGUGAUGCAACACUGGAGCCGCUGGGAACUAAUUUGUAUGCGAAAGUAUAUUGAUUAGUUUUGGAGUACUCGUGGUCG;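 also: selection with 25 µg/mL kanamycin versus none on LB agar overnight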
# assay.context: 37 °C
Entries annotated with measured self-splicing fitness (ln)
measured.property: self-splicing fitness (ln)

[[record]]
residue_string = "UAAAAGCAAUAUUACGGCAA"
measured = -0.176

[[record]]
residue_string = "UUGAAGCAAUAUUACGCGCA"
measured = 0.381

[[record]]
residue_string = "GCUUAGCAAUAUUACGGAGC"
measured = -2.57

[[record]]
residue_string = "AACUAGCAAUAUUACGCCGU"
measured = -0.221

[[record]]
residue_string = "GGAAAGCAAUAUUACGCCUC"
measured = -1.03

[[record]]
residue_string = "AAGAAGCAAUAUUACGAGUA"
measured = -1.44

[[record]]
residue_string = "GUAGAGCAAUAUUACGUUCC"
measured = -0.881

[[record]]
residue_string = "AAGUAGCAAUAUUACGGGGU"
measured = -2.53

[[record]]
residue_string = "AUAGAGCAAUAUUACGAAUU"
measured = -0.429

[[record]]
residue_string = "AAAGAGCAAUAUUACGCGUA"
measured = -1.61

[[record]]
residue_string = "CCAUAGCAAUAUUACGAGGA"
measured = -2.05

[[record]]
residue_string = "CGGAAGCAAUAUUACGUCAU"
measured = -3.33

[[record]]
residue_string = "GUAUAGCAAUAUUACGCUAG"
measured = -0.609

[[record]]
residue_string = "GAUAAGCAAUAUUACGACUC"
measured = 0.785

[[record]]
residue_string = "CCAAAGCAAUAUUACGAUAU"
measured = -2.79

[[record]]
residue_string = "UCACAGCAAUAUUACGUAGU"
measured = -2.6


----------
# run.description: self-splicing fitness, log relative to wild type (ln ratio); higher = more splicing; Tetrahymena group I intron in knt gene, E. coli kanamycin selection, DiMSum; sequences stand for … in CUCUCU…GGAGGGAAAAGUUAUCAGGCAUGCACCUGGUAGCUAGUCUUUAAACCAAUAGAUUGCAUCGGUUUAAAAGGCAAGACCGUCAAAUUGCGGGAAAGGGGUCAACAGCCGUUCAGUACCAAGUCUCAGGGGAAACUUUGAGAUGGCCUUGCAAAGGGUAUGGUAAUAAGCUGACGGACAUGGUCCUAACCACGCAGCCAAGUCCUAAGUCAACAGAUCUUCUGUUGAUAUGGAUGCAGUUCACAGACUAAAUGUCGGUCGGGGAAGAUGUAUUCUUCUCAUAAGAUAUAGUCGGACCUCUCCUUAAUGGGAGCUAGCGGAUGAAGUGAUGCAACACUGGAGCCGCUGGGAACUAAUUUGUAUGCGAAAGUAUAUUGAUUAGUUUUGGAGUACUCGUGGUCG
# assay.context: 37 °C
measured.property: self-splicing fitness (ln)

[[record]]
residue_string = "CCGGAGCAAUAUUACGUAGC"
measured = -2.04

[[record]]
residue_string = "CAGAAGCAAUAUUACGAGCU"
measured = -1.77

[[record]]
residue_string = "GCAUAGCAAUAUUACGAAUU"
measured = -1.61

[[record]]
residue_string = "AGGCAGCAAUAUUACGCACA"
measured = 0.275

[[record]]
residue_string = "AUAGAGCAAUAUUACGGCAA"
measured = -0.382

[[record]]
residue_string = "UCAAAGCAAUAUUACGUUAG"
measured = -1.64

[[record]]
residue_string = "GAGUAGCAAUAUUACGUUGA"
measured = -2.76

[[record]]
residue_string = "AAACAGCAAUAUUACGUAGA"
measured = -0.368


----------
# run.description: self-splicing fitness, log relative to wild type (ln ratio); higher = more splicing; Tetrahymena group I intron in knt gene, E. coli kanamycin selection, DiMSum; sequences stand for … in CUCUCU…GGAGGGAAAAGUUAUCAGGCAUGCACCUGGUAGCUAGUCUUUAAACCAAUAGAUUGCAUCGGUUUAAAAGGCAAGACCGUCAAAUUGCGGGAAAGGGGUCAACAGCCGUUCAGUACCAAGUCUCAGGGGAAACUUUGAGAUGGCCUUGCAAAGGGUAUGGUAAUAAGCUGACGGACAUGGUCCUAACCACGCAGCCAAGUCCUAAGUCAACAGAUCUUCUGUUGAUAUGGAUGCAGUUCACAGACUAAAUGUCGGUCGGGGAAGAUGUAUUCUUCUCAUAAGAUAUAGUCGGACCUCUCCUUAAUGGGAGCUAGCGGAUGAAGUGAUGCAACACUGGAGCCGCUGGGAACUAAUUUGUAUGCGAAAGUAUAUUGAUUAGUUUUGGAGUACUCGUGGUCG
# assay.context: 30 °C
Label NO if self-splicing fitness (ln) falls below -3; label YES in every other case.

[[record]]
residue_string = "GACCAGCAAUAUUACGUCGU"
discrete_label = "YES"

[[record]]
residue_string = "AGUAAGCAAUAUUACGAACU"
discrete_label = "YES"

[[record]]
residue_string = "AAGAAGCAAUAUUACGGGUU"
discrete_label = "YES"

[[record]]
residue_string = "ACCAAGCAAUAUUACGCAGC"
discrete_label = "YES"

[[record]]
residue_string = "AUAAAGCAAUAUUACGGCGG"
discrete_label = "YES"

[[record]]
residue_string = "CAAUAGCAAUAUUACGUAAU"
discrete_label = "NO"

[[record]]
residue_string = "GAUAAGCAAUAUUACGAGCU"
discrete_label = "YES"

[[record]]
residue_string = "UCCAAGCAAUAUUACGUUGA"
discrete_label = "YES"

[[record]]
residue_string = "UGGUAGCAAUAUUACGAAUC"
discrete_label = "YES"

[[record]]
residue_string = "UAGUAGCAAUAUUACGGAGA"
discrete_label = "NO"

[[record]]
residue_string = "GUAGAGCAAUAUUACGGCCA"
discrete_label = "YES"

[[record]]
residue_string = "UUCUAGCAAUAUUACGACCU"
discrete_label = "YES"

[[record]]
residue_string = "AUAUAGCAAUAUUACGCGGG"
discrete_label = "YES"

[[record]]
residue_string = "ACAAAGCAAUAUUACGUUCA"
discrete_label = "YES"

[[record]]
residue_string = "AAAGAGCAAUAUUACGACGA"
discrete_label = "YES"

[[record]]
residue_string = "ACGUAGCAAUAUUACGCAGC"
discrete_label = "NO"

[[record]]
residue_string = "CAGGAGCAAUAUUACGCCUU"
discrete_label = "YES"

[[record]]
residue_string = "AUUUAGCAAUAUUACGCGGG"
discrete_label = "YES"

[[record]]
residue_string = "UCGAAGCAAUAUUACGUUGA"
discrete_label = "YES"

[[record]]
residue_string = "AAGUAGCAAUAUUACGUUCU"
discrete_label = "YES"

[[record]]
residue_string = "UCUCAGCAAUAUUACGAGCG"
discrete_label = "YES"

[[record]]
residue_string = "ACGUAGCAAUAUUACGAGGU"
discrete_label = "NO"

[[record]]
residue_string = "CCUUAGCAAUAUUACGUGUU"
discrete_label = "NO"

[[record]]
residue_string = "AAAUAGCAAUAUUACGCCGG"
discrete_label = "YES"

[[record]]
residue_string = "CGGUAGCAAUAUUACGUCCC"
discrete_label = "YES"

[[record]]
residue_string = "GAGUAGCAAUAUUACGUUCA"
discrete_label = "YES"

[[record]]
residue_string = "GUUGAGCAAUAUUACGUUUA"
discrete_label = "NO"

[[record]]
residue_string = "ACCCAGCAAUAUUACGCUAG"
discrete_label = "YES"

[[record]]
residue_string = "GGUUAGCAAUAUUACGUACG"
discrete_label = "YES"

[[record]]
residue_string = "CGAAAGCAAUAUUACGCAGA"
discrete_label = "NO"

[[record]]
residue_string = "CAUUAGCAAUAUUACGCACG"
discrete_label = "YES"

[[record]]
residue_string = "UUCCAGCAAUAUUACGGCGC"
discrete_label = "YES"

[[record]]
residue_string = "CACGAGCAAUAUUACGUUCU"
discrete_label = "NO"

[[record]]
residue_string = "CGGCAGCAAUAUUACGUCCG"
discrete_label = "YES"

[[record]]
residue_string = "CUUCAGCAAUAUUACGUAUC"
discrete_label = "NO"

[[record]]
residue_string = "CUACAGCAAUAUUACGAGGU"
discrete_label = "YES"

[[record]]
residue_string = "GGCAAGCAAUAUUACGUUAG"
discrete_label = "NO"

[[record]]
residue_string = "GGUUAGCAAUAUUACGGUGA"
discrete_label = "YES"

[[record]]
residue_string = "GUAAAGCAAUAUUACGGCGA"
discrete_label = "YES"

[[record]]
residue_string = "GUGAAGCAAUAUUACGCUCU"
discrete_label = "YES"

[[record]]
residue_string = "GGAUAGCAAUAUUACGCCCG"
discrete_label = "YES"

[[record]]
residue_string = "GUAGAGCAAUAUUACGGCUU"
discrete_label = "YES"

[[record]]
residue_string = "CAAAAGCAAUAUUACGGAGA"
discrete_label = "YES"

[[record]]
residue_string = "UCACAGCAAUAUUACGCCGU"
discrete_label = "NO"

[[record]]
residue_string = "GUGAAGCAAUAUUACGCACA"
discrete_label = "YES"

[[record]]
residue_string = "AAAAAGCAAUAUUACGGACA"
discrete_label = "YES"

[[record]]
residue_string = "CAAUAGCAAUAUUACGCACA"
discrete_label = "YES"

[[record]]
residue_string = "CUGCAGCAAUAUUACGCAUG"
discrete_label = "YES"

[[record]]
residue_string = "UGAAAGCAAUAUUACGCUCC"
discrete_label = "YES"

[[record]]
residue_string = "UUCUAGCAAUAUUACGCAUC"
discrete_label = "YES"

[[record]]
residue_string = "CCUCAGCAAUAUUACGUCUC"
discrete_label = "NO"

[[record]]
residue_string = "AGGCAGCAAUAUUACGCUUU"
discrete_label = "NO"

[[record]]
residue_string = "AAAAAGCAAUAUUACGAAAG"
discrete_label = "YES"

[[record]]
residue_string = "GUAGAGCAAUAUUACGGGAG"
discrete_label = "NO"

[[record]]
residue_string = "ACAUAGCAAUAUUACGUUGA"
discrete_label = "YES"

[[record]]
residue_string = "UGCCAGCAAUAUUACGUCCC"
discrete_label = "YES"

[[record]]
residue_string = "UAAGAGCAAUAUUACGGGUA"
discrete_label = "YES"

[[record]]
residue_string = "UCCGAGCAAUAUUACGGACA"
discrete_label = "YES"

[[record]]
residue_string = "GGAGAGCAAUAUUACGUUCG"
discrete_label = "YES"

[[record]]
residue_string = "AGAUAGCAAUAUUACGGGGG"
discrete_label = "NO"

[[record]]
residue_string = "GAGAAGCAAUAUUACGCAUC"
discrete_label = "NO"

[[record]]
residue_string = "UCAGAGCAAUAUUACGGCCU"
discrete_label = "YES"


Data credit: the supplement of paper PMC7877785
